- TGT: T1, f-PlnD (Lactobacillus plantarum C11, UniProt Q48830 1-247)
- T1 sequence: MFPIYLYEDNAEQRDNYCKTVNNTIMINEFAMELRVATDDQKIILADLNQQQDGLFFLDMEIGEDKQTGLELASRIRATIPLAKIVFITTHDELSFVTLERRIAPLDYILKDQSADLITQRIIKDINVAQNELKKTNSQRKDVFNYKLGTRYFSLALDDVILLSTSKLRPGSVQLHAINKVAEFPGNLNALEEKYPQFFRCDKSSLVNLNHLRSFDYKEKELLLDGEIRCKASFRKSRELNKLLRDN
- PROTOCOL_SUMMARY: SPR; site 1 (KD1), heterogeneous ligand model; SPR (Biacore 3000, SA chip): 20 mM Tris-HCl pH 8.0, 100 mM NaCl, 5 mM MgCl2, 1 mM EDTA, 0.025% Triton X-100, 25°C; signals corrected by subtraction of control DNA (S8/rc) reference cell, no outcome reported for it
- TEST_CONDITIONS: protein: native; tags: N-terminal FLAG; chain copies: 2; label: biotin on forward strand; blunt
pKd: −log10 of the molar value.
Catalogue of binders with associated pKd

BINDER	pKd
PplnM (dsDNA) DNA 1: TGAATTATTGTACGATAATATCTAAAAATATTACGTTTATAAAAATATCG DNA 2: CGATATTTTTATAAACGTAATATTTTTAGATATTATCGTACAATAATTCA	6.25
PplnG (dsDNA) DNA 1: GCCTGATGAGGACATTTATCATAAAATTATGTACGTTAATAGATAGTTGG DNA 2: CCAACTATCTATTAACGTACATAATTTTATGATAAATGTCCTCATCAGGC	4.85
PplnJ (dsDNA) DNA 1: ACTTTCAAGTTACGTTAAATCGATTAAATAGTACGATAACAAATTTAAAA DNA 2: TTTTAAATTTGTTATCGTACTATTTAATCGATTTAACGTAACTTGAAAGT	4.92
PplnA (dsDNA) DNA 1: CATGGTGATTCACGTTTAAATTTAAAAAATGTACGTTAATAGAAATAATT DNA 2: AATTATTTCTATTAACGTACATTTTTTAAATTTAAACGTGAATCACCATG	5.82
